- TESTED_ON: MASP-2 CCP2-SP (Homo sapiens (Human))
- Sequence (O00187 445-686): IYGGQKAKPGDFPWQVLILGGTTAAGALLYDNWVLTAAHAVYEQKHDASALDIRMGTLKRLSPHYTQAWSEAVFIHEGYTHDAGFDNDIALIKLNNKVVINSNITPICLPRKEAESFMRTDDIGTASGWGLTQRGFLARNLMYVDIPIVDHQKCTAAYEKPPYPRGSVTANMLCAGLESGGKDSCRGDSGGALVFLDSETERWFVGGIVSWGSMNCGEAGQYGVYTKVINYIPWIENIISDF
- Sequence (O00187 364-432 partner): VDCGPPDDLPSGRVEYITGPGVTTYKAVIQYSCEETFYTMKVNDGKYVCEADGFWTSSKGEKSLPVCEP
- TEST_DESCRIPTION: MASP-2 co-crystallization, X-ray crystallography and structure analysis (H-bonds, van der Waals contacts)
- MEASUREMENT_CONTEXT: Table A8-6; pharmacophore elements C6, CA3, O3, H1; nearest protein atom in cell to the left
- From the text: This example illustrates the preparation of recombinant MASP-2 protein, based on UniProt O00187, human mannan-binding lectin serine protease 2. Expression constructs for human MASP-2 CCP2-SP and CCP2-SP-6HIS were generated for recombinant expression in E. coli cells. […]
PARAMETER: Pharmacophore protein distance to TRP_655

COMPOUND: C[C@H](NC(=O)[C@H](N)CCc1ccccc1)C(=O)NCc1ccc(N)nc1.Cl.Cl [1007_2]
TESTED_ON: MASP-2 CCP2-SP (Homo sapiens (Human))
READING: 3.60
//
COMPOUND: C[C@H](NC(=O)[C@H]1Cc2c([nH]c3ccccc23)CN1)C(=O)NCc1ccc(C(=N)N)cc1.Cl.Cl [1097_2]
TESTED_ON: MASP-2 CCP2-SP (Homo sapiens (Human))
READING: 3.09
//
COMPOUND: C[C@H](NC(=O)[C@H]1C[C@@H](c2ccccc2)CCN1)C(=O)NCc1ccc(C(=N)N)cc1 (stereo in doubt)
TESTED_ON: MASP-2 CCP2-SP (Homo sapiens (Human))
READING: 3.87
//
COMPOUND: C[C@H](NC(=O)[C@H]1C[C@@H](c2ccccc2)CN1)C(=O)NCc1ccc2c(N)nccc2c1.Cl.Cl [1089_B]
TESTED_ON: MASP-2 CCP2-SP (Homo sapiens (Human))
READING: 3.57
//
COMPOUND: C[C@H](NC(=O)[C@H]1C[C@@H](c2ccccc2)CCN1)C(=O)NCc1cc(Cl)ccc1O.Cl [1078_10]
TESTED_ON: MASP-2 CCP2-SP (Homo sapiens (Human))
READING: 3.89
//
COMPOUND: C[C@H](NC(=O)[C@H](N)CCc1cc(Cl)cc(Cl)c1)C(=O)NCc1ccc(C(=N)N)cc1
TESTED_ON: MASP-2 CCP2-SP (Homo sapiens (Human))
READING: 3.71
//
COMPOUND: C[C@H](NC(=O)[C@H](N)CCc1ccccc1)C(=O)NCc1ccc(C(=N)N)cc1
TESTED_ON: MASP-2 CCP2-SP (Homo sapiens (Human))
READING: 3.53

---

- TESTED_ON: UniProtKB O00187
- TEST_DESCRIPTION: MASP-2 co-crystallization, X-ray crystallography and structure analysis (H-bonds, van der Waals contacts)
- MEASUREMENT_CONTEXT: Table A6-2 pharmacophore angle
Structures can show the parent of a compound that is named as a salt.

COMPOUND: C[C@H](NC(=O)[C@H]1C[C@@H](c2ccccc2)CCN1)C(=O)NCc1cc(Cl)ccc1O.Cl [1078_2]
a(O1, O2, H3): 141.98
//
COMPOUND: C[C@H](NC(=O)[C@H]1C[C@@H](c2ccccc2)CCN1)C(=O)NCc1cc(Cl)ccc1O.Cl [1078_11]
a(O1, O2, H3): 137.81
//
COMPOUND: C[C@H](NC(=O)[C@H](N)CCc1cccc(Cl)c1)C(=O)NCc1ccc(C(=N)N)cc1
a(O1, O2, H3): 153.00
//
COMPOUND: CC(NC(=O)C1CC(Cc2ccccc2)CN1)C(=O)NCc1cnc2c(c1)c(Cl)cn2C.Cl.Cl (mixture of isomers) [1450_A]
a(O1, O2, H3): 127.40
//
COMPOUND: Cc1cnc(NCCc2ccccc2)c(=O)n1CC(=O)NCc1ccc2nc(N)[nH]c2c1
a(O1, O2, H3): 153.97
//
COMPOUND: CC(NC(=O)C1CC(Cc2ccccc2)CN1)C(=O)NCc1cnc2c(c1)c(Cl)cn2C.Cl.Cl (stereo not drawn) [1450_B]
a(O1, O2, H3): 123.50
//
COMPOUND: Cc1nc(N)ccc1CNC(=O)[C@H](C)NC(=O)[C@H]1C[C@H](Cc2ccccc2Br)CN1.O=C(O)C(F)(F)F.O=C(O)C(F)(F)F [1372_A]
a(O1, O2, H3): 137.15
//
COMPOUND: C[C@H](NC(=O)[C@H](N)CCc1ccccc1)C(=O)NCc1ccc(N)nc1.Cl.Cl [1007_2]
a(O1, O2, H3): 145.74
//
COMPOUND: N=C(N)c1ccc(CNC(=O)C(CF)NC(=O)[C@H](N)CCc2ccccc2)cc1 (stereo partly drawn) [compound 1050, Dihydrochloride]
a(O1, O2, H3): 137.51
//
COMPOUND: C[C@H](NC(=O)[C@H](N)CCc1ccccc1)C(=O)NCc1ccc(C(=N)N)cc1
a(O1, O2, H3): 151.79
//
COMPOUND: C[C@H](NC(=O)[C@H]1C[C@H](Cc2ccccc2)CN1)C(=O)NCc1ccc(C(=N)N)cc1.Cl.Cl [1306_2]
a(O1, O2, H3): 151.24
//
COMPOUND: Cc1nc(N)ccc1CNC(=O)[C@H](C)NC(=O)c1cc(Cc2ccccc2)n[nH]1
a(O1, O2, H3): 107.78
//
COMPOUND: Cc1nc(N)ccc1CNC(=O)[C@H](C)NC(=O)[C@H]1C[C@H](Cc2cc(-c3ccccc3)cs2)CN1 [compound 1399, Dihydrochloride]
a(O1, O2, H3): 145.77
//
COMPOUND: C[C@H](NC(=O)[C@H]1C[C@@H](c2ccccc2)CCN1)C(=O)NCc1cc(Cl)ccc1O.Cl [1078_16]
a(O1, O2, H3): 140.06
//
COMPOUND: C[C@H](NC(=O)[C@H]1C[C@@H](c2ccccc2)CCN1)C(=O)NCc1cnc2[nH]cc(Cl)c2c1
a(O1, O2, H3): 135.90

---

- TESTED_ON: MASP-2 CCP2-SP (Homo sapiens (Human))
- TEST_DESCRIPTION: MASP-2 co-crystallization, X-ray crystallography and structure analysis (H-bonds, van der Waals contacts);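 on Ligand-pharmacophore element distance, pharmacophore element CA2: distance from averaged pharmacophore element to bound ligand; missing value means element absent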
- MEASUREMENT_CONTEXT: Table A4-1; element CA2
Where a name gives a salt, the structure may show the parent alone.
PARAMETER: Ligand-pharmacophore element distance, pharmacophore element CA2

COMPOUND: C[C@H](NC(=O)[C@H](N)CCc1ccccc1)C(=O)NCc1ccc(N)nc1.Cl.Cl [1007_2]
TESTED_ON: MASP-2 CCP2-SP (Homo sapiens (Human))
READING: 0.86
//
COMPOUND: CC(=O)Nc1ccc(CCN[C@H](CCc2ccccc2)C(=O)N[C@@H](C)C(=O)NCc2ccc(N)nc2C)cc1 [compound 1368, Dihydrochloride]
TESTED_ON: MASP-2 CCP2-SP (Homo sapiens (Human))
READING: 0.95
//
COMPOUND: C[C@H](NC(=O)[C@H]1C[C@@H](c2ccccc2)CCN1)C(=O)NCc1cc(Cl)ccc1O.Cl [1078_4]
TESTED_ON: MASP-2 CCP2-SP (Homo sapiens (Human))
READING: 0.59
//
COMPOUND: Cc1nc(N)ccc1CNC(=O)[C@H](C)NC(=O)[C@H]1C[C@H](Cc2cccc(Cl)c2)CN1.Cl.Cl [1328_1]
TESTED_ON: MASP-2 CCP2-SP (Homo sapiens (Human))
READING: 0.5
//
COMPOUND: C[C@H](NC(=O)[C@H](N)CCCc1ccccc1)C(=O)NCc1ccc(C(=N)N)cc1.Cl.Cl [1042_2]
TESTED_ON: MASP-2 CCP2-SP (Homo sapiens (Human))
READING: 0.72
//
COMPOUND: C[C@H](NC(=O)[C@@H](CCc1ccccc1)NCCCc1ccc(O)cc1)C(=O)NCc1ccc(C(=N)N)cc1.Cl.Cl
TESTED_ON: MASP-2 CCP2-SP (Homo sapiens (Human))
READING: 0.41
//
COMPOUND: N=C(N)c1ccc(CNC(=O)[C@@H]2CCN2C(=O)[C@H]2Cc3ccccc3CN2)cc1
TESTED_ON: MASP-2 CCP2-SP (Homo sapiens (Human))
READING: 0
//
COMPOUND: C[C@H](NC(=O)[C@H](N)C1Cc2ccccc2C1)C(=O)NCc1ccc2nc(N)[nH]c2c1
TESTED_ON: MASP-2 CCP2-SP (Homo sapiens (Human))
READING: 0.8
//
COMPOUND: C[C@H](NC(=O)[C@H](N)CCc1ccccc1)C(=O)NCc1ccc(N)nc1.Cl.Cl [1007_1]
TESTED_ON: MASP-2 CCP2-SP (Homo sapiens (Human))
READING: 0.77
//
COMPOUND: C[C@H](NC(=O)[C@H](N)CCCc1ccccc1)C(=O)NCc1ccc(C(=N)N)cc1.Cl.Cl [1042_3]
TESTED_ON: MASP-2 CCP2-SP (Homo sapiens (Human))
READING: 1.65
//
COMPOUND: CNC(=O)c1ccc2c(=O)n(Cc3ccccc3)c(=O)n(CC(=O)NCc3ccc(C(=N)N)cc3)c2c1
TESTED_ON: MASP-2 CCP2-SP (Homo sapiens (Human))
READING: 0
//
COMPOUND: C[C@H](NC(=O)[C@H]1C[C@H](Cc2ccccc2)CN1)C(=O)NCc1ccc(C(=N)N)cc1.Cl.Cl [1306_2]
TESTED_ON: MASP-2 CCP2-SP (Homo sapiens (Human))
READING: 1.14
//
COMPOUND: C[C@H](NC(=O)[C@H]1C[C@@H](c2ccccc2)CCN1)C(=O)NCc1cc(Cl)ccc1O.Cl [1078_6]
TESTED_ON: MASP-2 CCP2-SP (Homo sapiens (Human))
READING: 0.65
//
COMPOUND: Cc1cnc(NCCc2ccccc2)c(=O)n1CC(=O)NCc1ccc2nc(N)[nH]c2c1
TESTED_ON: MASP-2 CCP2-SP (Homo sapiens (Human))
READING: 0
//
COMPOUND: C[C@H](NC(=O)C1C[C@@H](c2ccccc2)CCN1)C(=O)NCc1ccc(C(=N)N)cc1 (stereo in doubt)
TESTED_ON: MASP-2 CCP2-SP (Homo sapiens (Human))
READING: 0.85
